assay-method-text: In vivo antimalarial activity against Plasmodium berghei in mice (Mus musculus) after 6 days
Format: functional
run-conditions: 144 h
measured-quantity: ED90

Ask: Could you tell me which ED90 is on file for Cc1cc(C)c(C)c(OCCCON/C(N)=N/C(N)=N/C(C)C)c1.Cl ?
Result: < 128 mg/kg

Ask: Here is the next compound: CC(C)/N=C(N)/N=C(\N)NOCCCOc1ccc(C(C)(C)C)cc1.Cl
Result: > 128 mg/kg

Ask: Okay, and CC(C)/N=C(N)/N=C(\N)NOCCCOc1ccccc1.Cl ?
Result: 124 mg/kg

Ask: Do the same for COc1ccc(OCCCO/N=C(N)/N=C(\N)NC(C)C)cc1.Cl please
Result: > 128 mg/kg

Ask: Also CC(C)NC(=N)NC(=N)NOCCCOc1ccc(Cl)cc1 ?
Result: < 16 mg/kg

Ask: Try CC(C)/N=C(N)/N=C(\N)NOCCCOc1ccc2ccccc2c1.Cl next.
Result: < 128 mg/kg

Ask: Please do the same for CC(C)/N=C(N)/N=C(\N)NOCCCSc1cc(Cl)ccc1Cl as well.
Result: < 128 mg/kg

Ask: Please give the result for Cc1ccc(SCCCON/C(N)=N/C(N)=N/C(C)C)cc1.Cl too.
Result: 92 mg/kg

Ask: What would you report for CC(C)/N=C(N)/N=C(\N)NOCCCOc1ccc(Cl)cc1Cl ?
Result: 17 mg/kg

Ask: Next record, please: CC(C)/N=C(N)/N=C(\N)NOCCCOc1cccc2ccccc12.Cl
Result: > 256 mg/kg

Ask: Quick one: CC(C)/N=C(N)/N=C(\N)NOCCCOc1ccc(F)c(F)c1.Cl
Result: < 16 mg/kg

====

Tested on: Plasmodium falciparum
assay-method-text: In vitro antimalarial activity against Plasmodium falciparum W2
Format: functional, organism-based
Rule for this label: 1 (yes) means IC50 is less than 0.04 ng/mL; 0 (no) means IC50 is at least 0.04 ng/mL.

Ask: For this compound, is IC50 lower than 0.04 ng/mL? Cc1cccc(OCCCON2C(N)=NC(N)=NC2(C)C)c1.Cl
Result: 0 (no)

Ask: Now give it for CC1(C)N=C(N)N=C(N)N1OCCCSc1ccc(Cl)cc1 too.
Result: 1 (yes)

Ask: Try this compound too: N=C1N=C(N)NC2(CCCCC2)N1OCCCOc1cc(Cl)c(Cl)cc1Cl
Result: 0 (no)

Ask: # iterate: CC1(C)N=C(N)N=C(N)N1OCCCOc1ccc2ccccc2c1.Cl
Result: 1 (yes)

Ask: Moving on to CCCCCCCCCC1N=C(N)N=C(N)N1OCCCOc1cc(Cl)c(Cl)cc1Cl (stereo unspecified)
Result: 0 (no)

Ask: Query CC1(C)N=C(N)N=C(N)N1OCCCOc1ccc([N+](=O)[O-])cc1.Cl next
Result: 1 (yes)

Ask: Quick one: COc1cc(OCCCON2C(N)=NC(N)=NC2(C)C)cc(OC)c1OC.Cl
Result: 0 (no)

Ask: Same lookup for CC1(C)N=C(N)N=C(N)N1OCCCOc1cccc(C(F)(F)F)c1.Cl , please.
Result: 1 (yes)

Ask: COc1ccc(OCCCON2C(N)=NC(N)=NC2(C)C)cc1.Cl , same question.
Result: 1 (yes)

Ask: Item: CC1(C)N=C(N)N=C(N)N1c1ccc(Cl)cc1 [CYCLOGUANIL]
Result: 0 (no)

Ask: Similarly, CC1(C)N=C(N)N=C(N)N1OCCOc1cc(Cl)c(Cl)cc1Cl ?
Result: 0 (no)

Numbers sourced from ChEMBL document CHEMBL1134684.
